Reported inhibition at 10 µM by item:
Molecular target: bradykinin 1 receptor (B1R) of the rat (Rattus norvegicus, UniProt P97583)
Construct: expressed in transfected cells; host or cells: CHO K1 cells
Sequence (P97583 whole entry): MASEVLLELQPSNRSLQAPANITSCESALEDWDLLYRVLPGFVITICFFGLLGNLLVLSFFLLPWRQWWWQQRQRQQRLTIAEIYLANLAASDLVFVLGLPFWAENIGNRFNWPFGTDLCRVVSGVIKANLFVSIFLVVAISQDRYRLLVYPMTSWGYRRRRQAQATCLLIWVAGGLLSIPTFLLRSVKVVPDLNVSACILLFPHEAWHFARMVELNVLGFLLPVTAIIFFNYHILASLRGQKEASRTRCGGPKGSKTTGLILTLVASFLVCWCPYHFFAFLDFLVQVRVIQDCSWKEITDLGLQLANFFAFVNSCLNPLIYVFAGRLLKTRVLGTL
Assay: Functional investigation on the rat bradykinin 1 receptor (B1R), Ca2+ FLIPR assay in CHO K1 rB1R cells
Format: cell-based
Conditions: CHO-K1, B1R antagonism rat; test substance 10 μM; Ca2+ FLIPR, CHO K1 rB1R cells; read-out: B1R Ant. r [10 μM] % Inhibition
Text: Functional Investigation on the Human Bradykinin 1 Receptor (B1R) The agonistic or antagonistic action of substances can be determined on the bradykinin 1 receptor (B1R) of the human species and rats with the following assay. In accordance with this assay, the Ca^2+ inflow through the channel is quantified with the aid of a Ca^2=-sensitive dyestuff (type Fluo-4, Molecular Probes Europe BV, Leiden, Holland) in a fluorescent imaging plate reader (FLIPR, Molecular Devices, Sunnyvale, USA). […]
Express it in %; write the number only.

* COc1cc(C)c(S(=O)(=O)N2CCCCC2COCC(=O)NCC2CCC(C(CCc3ccccc3)N3CCOCC3)CC2)c(C)c1 (stereo not shown) | 103
* CCN(CCOCC(=O)NC1CCC(C(c2cccs2)N(C)C)CC1)S(=O)(=O)c1c(C)cc(OC)c(C)c1C (stereo not shown) | 70
* CN1CCN(C(c2ccccc2)C2CCC(NC(=O)COCC3CCCN(S(=O)(=O)c4c(Cl)cc(Cl)cc4Cl)C3)CC2)CC1 (stereo not shown) | 53

query: Requested field: inhibition at 10 µM. Item: COc1cc(C)c(S(=O)(=O)N2CCC(OCC(=O)NCC3CCC(C(c4ccccc4)N(C)C)CC3)CC2)c(C)c1C (stereo not shown)
result: 19
